Here, each record is paired with measured FWHM data.
# Experiment: Brightness of hydroporphyrin monomers vs. porphyrin-hydroporphyrin dyads at 405 nm excitation
# Format: physicochemical
# Measurement parameters: emission peak narrowness
Assay readout: FWHM (nm)

[[record]]
compound = "COC(=O)c1ccc(-c2c3nc(cc4[nH]c(cc5nc(cc6[nH]c2cc6C#Cc2ccc(-c6c7nc(cc8ccc(cc9nc(cc%10ccc6[nH]%10)C=C9)[nH]8)C=C7)cc2)CC5(C)C)cc4C#Cc2ccc(-c4c5nc(cc6ccc(cc7nc(cc8ccc4[nH]8)C=C7)[nH]6)C=C5)cc2)C=C3)cc1 [Dyad P1-C6]"
observed = 17

[[record]]
compound = "COc1c2nc(cc3ccc([nH]3)c(-c3ccc(-c4c5nc(cc6ccc(cc7nc(cc8ccc4[nH]8)C=C7)[nH]6)C=C5)cc3)c3nc(cc4ccc1[nH]4)C(C)(C)C3)C(C)(C)C2"
observed = 15

[[record]]
compound = "COC(=O)c1c(C#Cc2ccc(-c3c4nc(cc5ccc(cc6nc(cc7ccc3[nH]7)C=C6)[nH]5)C=C4)cc2)c2cc3nc(c(OC)c4[nH]c(cc5nc(cc1[nH]2)CC5(C)C)c(C#Cc1ccc(-c2c5nc(cc6ccc(cc7nc(cc8ccc2[nH]8)C=C7)[nH]6)C=C5)cc1)c4C(=O)OC)CC3(C)C [Dyad P1-BC2]"
observed = 31

[[record]]
compound = "COC(=O)c1ccc(-c2c3nc(cc4[nH]c(cc5nc(cc6[nH]c2cc6-c2ccc(CNC(=O)c6ccc(C7=C8C=CC(=N8)C=c8ccc9[n]8[Zn][n]8c(ccc87)C=C7C=CC(=N7)C=9)cc6)cc2)CC5(C)C)cc4-c2ccccc2)C=C3)cc1 [P2-C1, methyl ester]"
observed = 18

